assayed_target: human muscle type 6-phosphofructo-1-kinase (PFK-M) (Homo sapiens, UniProt P08237, K557R)
Construct: recombinant human PFK-M mutant expressed in E. coli RL257
Sequence (P08237 2-780 K557R): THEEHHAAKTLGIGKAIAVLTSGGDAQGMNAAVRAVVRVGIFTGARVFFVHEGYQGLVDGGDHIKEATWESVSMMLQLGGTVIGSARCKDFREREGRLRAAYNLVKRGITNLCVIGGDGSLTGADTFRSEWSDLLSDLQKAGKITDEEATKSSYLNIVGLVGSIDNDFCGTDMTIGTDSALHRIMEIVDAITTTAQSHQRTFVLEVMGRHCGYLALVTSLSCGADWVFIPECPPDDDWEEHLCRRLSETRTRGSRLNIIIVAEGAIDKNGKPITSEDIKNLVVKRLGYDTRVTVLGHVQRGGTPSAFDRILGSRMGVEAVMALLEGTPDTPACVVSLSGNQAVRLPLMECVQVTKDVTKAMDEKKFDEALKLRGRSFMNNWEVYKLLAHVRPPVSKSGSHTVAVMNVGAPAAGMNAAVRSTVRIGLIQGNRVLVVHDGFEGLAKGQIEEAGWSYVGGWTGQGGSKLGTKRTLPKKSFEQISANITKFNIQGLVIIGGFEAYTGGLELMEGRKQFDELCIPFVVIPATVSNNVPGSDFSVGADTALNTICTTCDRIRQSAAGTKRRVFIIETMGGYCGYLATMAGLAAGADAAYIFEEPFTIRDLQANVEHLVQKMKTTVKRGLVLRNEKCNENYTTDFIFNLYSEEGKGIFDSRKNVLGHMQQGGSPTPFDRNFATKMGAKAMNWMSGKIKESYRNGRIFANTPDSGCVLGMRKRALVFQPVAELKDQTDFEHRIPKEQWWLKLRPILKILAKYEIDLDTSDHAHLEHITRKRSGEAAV
protocol_details: coupled spectrophotometric PFK1 assay ([…] nm) with purified enzyme
parameter_measured: pKi
Numbers only, as −log10 of the molar value.

Given the entry O=C(O)CC(O)(CC(=O)O)C(=O)O [citrate] , report its measured pKi. 3.52

====

assayed_target: human muscle type 6-phosphofructo-1-kinase (PFK-M) (Homo sapiens, UniProt P08237)
Construct: recombinant native human PFK-M expressed in E. coli RL257
Sequence (P08237 2-780): as the sequence (P08237 2-780 K557R) above, with R556K counted along it
protocol_details: coupled spectrophotometric PFK1 assay ([…] nm) with purified enzyme
parameter_measured: pKi
One number for each entry, as −log10 of the molar value.

Given the entry O=C(O)CC(O)(CC(=O)O)C(=O)O [citrate] , report its measured pKi. 4.30
